# TEST_METHOD_NOTES: NCI Yeast Anticancer Drug Screen. Data for the bub3 strain (AID 167)
# CONDITIONS_USED: S. cerevisiae bub3 mutant strain, at 5.0 µM (retest, dose inferred, filed as 0.5)
About 79,000 compounds went through this panel and 15% of them were active in at least one assay; those are over-represented in the sample as a whole. The source made the active and inactive calls. Rule as the data show it: active = growth inhibition above about 70%; inactive = the rest.
Outcomes: active, inactive

Nc1cc2[nH]c(=O)c3cc(Cl)ccc3c2cc1Cl ... inactive
Oc1cc2ccccc2cc1O ... inactive
[O-]c1c(-c2cccc3ccccc23)sc(-c2cccc3ccccc23)[n+]1-c1ccccc1 ... inactive
O=c1c2ccccc2sc2c1c(N(CCO)CCO)cc1ccccc12 ... inactive
O=S(=O)(O)CNc1cc(Cl)cc(Cl)c1 ... inactive
NC(=O)c1cccn1Cc1ccccc1SSc1ccccc1Cn1cccc1C(N)=O ... inactive
Cc1ccc(/C=N\NC(=S)N/N=C/c2ccc(C)cc2)cc1 ... inactive
O=S(=O)(Nc1ccc2c3c(cccc13)C=C2)c1ccccc1 ... inactive
O=[N+]([O-])c1ccc(N2N=NC(CN3CCOCC3)C2N2CCOCC2)cc1 (centres undefined) ... inactive
Cc1ccc(S(=O)(=O)N/N=C(\C=C\c2ccccc2)c2ccccc2)cc1 ... inactive
CN(C)CC(CN(C)C)C(=O)c1ccc(Oc2ccc(Cl)cc2)cc1 ... active
CCOC(=O)[C@@H](F)[C@H](Br)C(=O)OCC ... active
CC(C)(C)c1ccc(C(=O)C[n+]2ccc(Cl)c3ccc(Cl)cc32)cc1 ... inactive
COc1cc(O)c2c(c1)C(=O)c1cc3c(c(O)c1C2=O)C(OC1OC(C)C(O)C(O)C1OC)C(OC)C(C)(O)C3=O (centres undefined) ... inactive
O=C(O)C(Cc1cc(I)c(O)c(I)c1)c1ccccc1 (centres undefined) ... inactive
O=C(O)/C(Cl)=C(/Cl)C(=O)Nc1cccc(Cl)c1 ... inactive
NC(N)=Nc1ccc(C(=O)Oc2c(Cl)cc([N+](=O)[O-])cc2Cl)cc1 ... inactive
O=C(c1ccccc1)c1c(CO[N+](=O)[O-])n([O-])c2ccccc2[n+]1=O ... inactive
COc1ccc(N=NN2CCCC2)cc1 ... inactive
O=C1C=C(O)c2cc(Br)ccc2C1=O.[Ag] ... active
O=C1C2C3C=CC(C3)C2C(=O)C2C3C=CC(C3)C12 (centres undefined) ... inactive
C=C(C)C1CC2=C(O1)C(=O)c1ccccc1C2=O (centres undefined) ... inactive
CC(C)C(=O)c1ccc2ccccc2c1O ... inactive
Cc1[nH]c2ccccc2c1SCc1ccccc1 ... inactive
c1ccc([CH2][Sn]([CH2]c2ccccc2)([S]c2cccc3cccnc23)[S]c2cccc3cccnc23)cc1 ... inactive
Cn1nc2c(c(Cl)c1=O)Nc1ccccc1O2 ... inactive
Cc1ccc(C(CN)(CCBr)c2ccc(C)cc2)cc1 ... inactive
c1cc[c]([Sn]([O]c2cccc3cccnc23)([c]2ccccc2)[c]2ccccc2)cc1 ... active
CCOc1c(N=Nc2ccccc2OC)c(-c2ccccc2)nn1C(N)=S ... inactive
CC[n+]1cnc(N)c2c(-c3ccc(Cl)cc3)cn(-c3ccc(C)cc3)c21 ... inactive
CC(=O)C(C=O)C(C)=O.CC(=O)CC(C)=O.CC(=O)CC(C)=O.[Ru] ... inactive
CC(C)(C)c1cc(Nc2ccc([N+](=O)[O-])cc2[N+](=O)[O-])cc(C(C)(C)C)c1O ... inactive
O=C(CCCN1CCN2Cc3[nH]c4ccccc4c3CC2C1)c1ccc(F)cc1 (centres undefined) ... inactive
CC(=O)Nc1cccc2c1ccc1ccc3ccccc3c12 ... inactive
